Field: PDI. Provide a value for each of the molecules that follow.
Assay: Delivery vehicle size and polydispersity by dynamic light scattering
Assay type: physicochemical
Conditions: DLS in PBS; peptoid:DSPC:Cholesterol:DMG-PEG2000 weight ratio 20:1.79:7.16:1.84, mRNA
Non-standard residues stand in square brackets, D forms with d. Residues, ends and D or L forms follow the SMILES beside them. Gly(N-(3-decanoyloxypropyl)) = CCCCCCCCCC(=O)OCCCNCC(=O)O; N(3-lauroyloxypropyl)Gly = CCCCCCCCCCCC(=O)OCCCNCC(=O)O; N(3-imidazol-1-ylpropyl)Gly = O=C(O)CNCCCn1ccnc1; N(2-ethylhexyl)Gly = CCCCC(CC)CNCC(=O)O; N(CH(CH2OH)2)Gly = O=C(O)CNC(CO)CO

Prompt line: For the molecule shown here, CCCCCCCCCC(=O)OCCCN(CC(=O)N(CC(=O)N(CC(=O)N(CCCOC(=O)CCCCCCCCC)CC(=O)N(CC(N)=O)CC(CC)CCCC)CC(CC)CCCC)CC(CC)CCCC)C(=O)CN(CC(CC)CCCC)C(=O)CNC(CO)CO (centres unmarked) [Compound 5] (H-[N(CH(CH2OH)2)Gly][N(2-ethylhexyl)Gly][Gly(N-(3-decanoyloxypropyl))][N(2-ethylhexyl)Gly][N(2-ethylhexyl)Gly][Gly(N-(3-decanoyloxypropyl))][N(2-ethylhexyl)Gly]-NH2) , give the reported PDI.
Response line: 0.076

Prompt line: For the molecule shown here, CCCCCCCCCCCC(=O)OCCCN(CC(=O)N(CCCOC(=O)CCCCCCCCCCC)CC(=O)N(CC(=O)N(CCCOC(=O)CCCCCCCCCCC)CC(=O)N(CCCOC(=O)CCCCCCCCCCC)CC(=O)N(CC(N)=O)CC(CC)CCCC)CC(CC)CCCC)C(=O)CNCCCn1ccnc1 (centres unmarked) [Compound 68] (H-[N(3-imidazol-1-ylpropyl)Gly][N(3-lauroyloxypropyl)Gly][N(3-lauroyloxypropyl)Gly][N(2-ethylhexyl)Gly][N(3-lauroyloxypropyl)Gly][N(3-lauroyloxypropyl)Gly][N(2-ethylhexyl)Gly]-NH2) , give the reported PDI.
Response line: 0.178

---

System: luciferase
Test: Luciferase expression after local (intramuscular or subcutaneous) administration of mRNA
Assay type: in vivo
Conditions: subcutaneous, mRNA 0.01 mpk, 6 hours
Method: All animal studies were conducted under accreditation by the California State Department of Public Health and under supervision of IACUC and Veterinarian Supervision. For imaging studies, female Balb/c mice (6-8 weeks old) were obtained and acclimatized for a minimum of 3 days prior to experiments. The animals were maintained on a 12 hour light cycle in a temperature and humidity controlled room. […] Living Image software (Perkin Elmer) was used to quantify the total photon flux in regions of interest. […]
Starred links: 1 amine or outer side, 2 acyl side, 3 side chain; linkers in the order of their positions; H or OH if unused. Non-standard residues stand in square brackets, D forms with d. Residues, ends and D or L forms follow the SMILES beside them. *: point of attachment. Gly(N-(3-decanoyloxypropyl)) = CCCCCCCCCC(=O)OCCCNCC(=O)O; N(3-lauroyloxypropyl)Gly = CCCCCCCCCCCC(=O)OCCCNCC(=O)O; N(2-decanoyloxyethyl)Gly = CCCCCCCCCC(=O)OCCNCC(=O)O; Gly(N-(CH2)3O-octanoyl) = CCCCCCCC(=O)OCCCNCC(=O)O; N(3-imidazol-1-ylpropyl)Gly = O=C(O)CNCCCn1ccnc1; Gly(N-3-morpholinopropyl) = O=C(O)CNCCCN1CCOCC1; N(2-ethylhexyl)Gly = CCCCC(CC)CNCC(=O)O; X1 = CCCCC(CC)CSSCCN(CC(=O)[*:2])[*:1]; N(CH(CH2OH)2)Gly = O=C(O)CNC(CO)CO; N(octyl)Gly = CCCCCCCCNCC(=O)O; NDecylGly = CCCCCCCCCCNCC(=O)O; NHexGly = CCCCCCNCC(=O)O; For = O=C*
parameter: SC Flux (p/s)
Provide the reading as a plain figure in p/s.

Prompt line: Lab request: please report SC Flux under test system luciferase for CCCCCCCCCCCC(=O)OCCCN(CC(=O)N(CCCOC(=O)CCCCCCCCCCC)CC(=O)N(CC(=O)N(CCCOC(=O)CCCCCCCCCCC)CC(=O)N(CCCOC(=O)CCCCCCCCCCC)CC(=O)N(CC(N)=O)CC(CC)CCCC)CC(CC)CCCC)C(=O)CNCCCn1ccnc1 (centres unmarked) [Compound 68] (H-[N(3-imidazol-1-ylpropyl)Gly][N(3-lauroyloxypropyl)Gly][N(3-lauroyloxypropyl)Gly][N(2-ethylhexyl)Gly][N(3-lauroyloxypropyl)Gly][N(3-lauroyloxypropyl)Gly][N(2-ethylhexyl)Gly]-NH2)
Response line: 3.39E+08

Prompt line: Lab request: please report SC Flux under test system luciferase for CCCCCCCCCC(=O)OCCN(CC(N)=O)C(=O)CN(CCOC(=O)CCCCCCCCC)C(=O)CN(CC(CC)CCCC)C(=O)CN(CCOC(=O)CCCCCCCCC)C(=O)CN(CCOC(=O)CCCCCCCCC)C(=O)CN(CC(CC)CCCC)C(=O)CNC(CO)CO (centres unmarked) [Compound 105] (H-[N(CH(CH2OH)2)Gly][N(2-ethylhexyl)Gly][N(2-decanoyloxyethyl)Gly][N(2-decanoyloxyethyl)Gly][N(2-ethylhexyl)Gly][N(2-decanoyloxyethyl)Gly][N(2-decanoyloxyethyl)Gly]-NH2)
Response line: 9.57E+08

Prompt line: Lab request: please report SC Flux under test system luciferase for CCCCCCCCCCN(CC(=O)N(CC(=O)N(CCCOC(=O)CCCCCCCCC)CC(N)=O)CC(CC)CCCC)C(=O)CN(CC(CC)CCCC)C(=O)CN(CCCOC(=O)CCCCCCCCC)C(=O)CN(CC(CC)CCCC)C(=O)CNC(CO)CO (centres unmarked) [Compound 58] (H-[N(CH(CH2OH)2)Gly][N(2-ethylhexyl)Gly][Gly(N-(3-decanoyloxypropyl))][N(2-ethylhexyl)Gly][NDecylGly][N(2-ethylhexyl)Gly][Gly(N-(3-decanoyloxypropyl))]-NH2)
Response line: 1.99E+07

Prompt line: Lab request: please report SC Flux under test system luciferase for CCCCCCCCCC(=O)OCCCN(CC(=O)N(CCCOC(=O)CCCCCCCCC)CC(=O)N(CCCCCC)CC(=O)N(CCCOC(=O)CCCCCCCCC)CC(=O)N(CCCOC(=O)CCCCCCCCC)CC(=O)N(CCCCCC)CC(N)=O)C(=O)CN(C=O)CCCN1CCOCC1 [Compound 108] (For-[Gly(N-3-morpholinopropyl)][Gly(N-(3-decanoyloxypropyl))][Gly(N-(3-decanoyloxypropyl))][NHexGly][Gly(N-(3-decanoyloxypropyl))][Gly(N-(3-decanoyloxypropyl))][NHexGly]-NH2)
Response line: 1.74E+08

Prompt line: Lab request: please report SC Flux under test system luciferase for CCCCCCCCN(CC(=O)N(CCCOC(=O)CCCCCCC)CC(=O)N(CCSSCC(CC)CCCC)CC(=O)N(CCCCCCCC)CC(=O)N(CCCOC(=O)CCCCCCC)CC(=O)N(CCSSCC(CC)CCCC)CC(N)=O)C(=O)CNC(CO)CO (centres unmarked) [Compound 127] (H-[N(CH(CH2OH)2)Gly][N(octyl)Gly][Gly(N-(CH2)3O-octanoyl)][X1][N(octyl)Gly][Gly(N-(CH2)3O-octanoyl)][X1]-NH2)
Response line: 1.92E+08

---

Experiment: Peptoid quantity remaining in liver by HPLC-TOF mass spectrometry
Format: in vivo
Settings: liver homogenate
Non-standard residues stand in square brackets, D forms with d. Residues, ends and D or L forms follow the SMILES beside them. *: point of attachment. Gly(N-(CH2)3O-octanoyl) = CCCCCCCC(=O)OCCCNCC(=O)O; Gly(N-3-morpholinopropyl) = O=C(O)CNCCCN1CCOCC1; N(2-ethylhexyl)Gly = CCCCC(CC)CNCC(=O)O; Gly(N-dodecyl) = CCCCCCCCCCCCNCC(=O)O; For = O=C*
parameter: % of injected dose remaining in liver (%)
Provide the reading as a plain figure in %.

Prompt line: For the compound shown here, CCCCCCCCCCCCN(C=O)CC(=O)N(CCCOC(=O)CCCCCCC)CC(=O)N(CC(=O)N(CCCN1CCOCC1)CC(=O)N(CC(=O)N(CCCOC(=O)CCCCCCC)CC(=O)N(CCCCCCCCCCCC)CC(N)=O)CC(CC)CCCC)CC(CC)CCCC (stereo not shown) [Compound 116] (For-[Gly(N-dodecyl)][Gly(N-(CH2)3O-octanoyl)][N(2-ethylhexyl)Gly][Gly(N-3-morpholinopropyl)][N(2-ethylhexyl)Gly][Gly(N-(CH2)3O-octanoyl)][Gly(N-dodecyl)]-NH2) , give the reported % of injected dose remaining in liver.
Response line: 15.67

---

System: mRNA
Test: mRNA encapsulation (modified Quant-iT RiboGreen assay)
Format: physicochemical
Settings: mRNA; formulation recipe F2
Non-standard residues stand in square brackets, D forms with d. Residues, ends and D or L forms follow the SMILES beside them. *: point of attachment. Gly(N-(3-decanoyloxypropyl)) = CCCCCCCCCC(=O)OCCCNCC(=O)O; Gly(N-3-morpholinopropyl) = O=C(O)CNCCCN1CCOCC1; N(2-ethylhexyl)Gly = CCCCC(CC)CNCC(=O)O; Gly(N-dodecyl) = CCCCCCCCCCCCNCC(=O)O; For = O=C*
parameter: % Encapsulation (%)
Provide the reading as a plain figure in %.

Prompt line: Lab request: please report % Encapsulation under test system mRNA for CCCCCCCCCCCCN(C=O)CC(=O)N(CCCOC(=O)CCCCCCCCC)CC(=O)N(CC(=O)N(CCCN1CCOCC1)CC(=O)N(CC(=O)N(CCCOC(=O)CCCCCCCCC)CC(=O)N(CCCCCCCCCCCC)CC(N)=O)CC(CC)CCCC)CC(CC)CCCC (stereo not shown) [Compound 88] (For-[Gly(N-dodecyl)][Gly(N-(3-decanoyloxypropyl))][N(2-ethylhexyl)Gly][Gly(N-3-morpholinopropyl)][N(2-ethylhexyl)Gly][Gly(N-(3-decanoyloxypropyl))][Gly(N-dodecyl)]-NH2)
Response line: 71.8
